Reported IC50 values for the following molecules.
# TESTED SYSTEM: CYP2C19 (Homo sapiens)
# Construct: from tissue; host or cells: human liver microsomes
# Sequence (P33261 whole entry): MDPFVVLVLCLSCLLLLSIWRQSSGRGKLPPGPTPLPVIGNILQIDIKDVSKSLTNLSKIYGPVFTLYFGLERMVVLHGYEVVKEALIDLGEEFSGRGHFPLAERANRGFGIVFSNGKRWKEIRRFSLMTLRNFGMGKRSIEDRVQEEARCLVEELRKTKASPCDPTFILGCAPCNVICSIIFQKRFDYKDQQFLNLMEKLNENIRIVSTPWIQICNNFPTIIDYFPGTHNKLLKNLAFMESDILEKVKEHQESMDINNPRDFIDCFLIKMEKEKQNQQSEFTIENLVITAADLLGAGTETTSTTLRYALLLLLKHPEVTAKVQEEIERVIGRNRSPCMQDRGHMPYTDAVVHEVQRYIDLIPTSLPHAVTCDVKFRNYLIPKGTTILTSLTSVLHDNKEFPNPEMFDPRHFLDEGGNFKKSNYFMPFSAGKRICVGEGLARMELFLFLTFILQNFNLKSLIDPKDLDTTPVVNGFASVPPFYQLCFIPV
# EXPERIMENT: CYP inhibition assay, human liver microsomes, substrate S-mephenytoin
# Format: in vitro ADME
# ASSAY SETUP: human liver microsomes, 10 min incubation, LC-MS/MS; read-out: CYP Inhibition Activity (IC50/nM) CYP2C19
Hi! Could you send only the number? It should be in nM, unit omitted.

Worked examples follow.
MOLECULE: CC1(O)CCN(c2ccc(C(F)(F)F)cc2NC(=O)c2ccc(-c3ccncc3)o2)C1 (racemic)
IC50 [nM]: 22900

MOLECULE: CN(C)C(=O)C1(C)CCN(c2ccc(C(F)(F)F)cc2NC(=O)c2ccc(-c3ccncc3)o2)CC1
IC50 [nM]: 2890

MOLECULE: CN(C)CC1(C)CCN(c2ccc(Cl)cc2NC(=O)c2ccc(C3CCOCC3)o2)CC1
IC50 [nM]: 20800

Which IC50 is listed for Cc1ccc(N2CCC(O)CC2)c(NC(=O)c2ccc(C3CCOCC3)o2)c1 ? 7500

// IC50 lookup, key: CC1(C(=O)O)CCN(c2ccc(C(F)(F)F)cc2NC(=O)c2ccc(-c3ccncc3)o2)CC1 12900

Query (molecule): O=C(Nc1cc(C2CC2)ccc1N1CCC(O)CC1)c1ccc(C2CCOCC2)o1 ; field requested: IC50 10600

====

# TESTED SYSTEM: SRPK1 (Homo sapiens)
# Sequence (Q96SB4 whole entry, species assumed): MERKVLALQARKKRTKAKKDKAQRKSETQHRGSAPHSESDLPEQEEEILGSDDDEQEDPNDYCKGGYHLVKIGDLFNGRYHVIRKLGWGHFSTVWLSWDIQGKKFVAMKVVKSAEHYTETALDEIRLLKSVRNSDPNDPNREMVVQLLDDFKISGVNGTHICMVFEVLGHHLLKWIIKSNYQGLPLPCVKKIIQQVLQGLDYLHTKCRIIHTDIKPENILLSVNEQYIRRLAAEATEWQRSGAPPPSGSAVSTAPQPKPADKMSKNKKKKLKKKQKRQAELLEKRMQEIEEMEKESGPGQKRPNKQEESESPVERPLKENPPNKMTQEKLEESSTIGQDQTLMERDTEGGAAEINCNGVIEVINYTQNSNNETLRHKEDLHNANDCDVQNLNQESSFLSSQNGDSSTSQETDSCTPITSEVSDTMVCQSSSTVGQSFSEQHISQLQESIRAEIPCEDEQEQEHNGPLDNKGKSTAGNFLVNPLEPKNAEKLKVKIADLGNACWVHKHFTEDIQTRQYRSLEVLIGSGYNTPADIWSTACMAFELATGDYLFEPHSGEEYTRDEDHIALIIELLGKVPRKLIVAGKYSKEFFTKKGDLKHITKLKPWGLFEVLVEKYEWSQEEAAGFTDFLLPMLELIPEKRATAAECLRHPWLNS
# EXPERIMENT: In vitro SRPK1 assay (Kinase-Glo)
# Type: biochemical
QUANTITY KIND: IC50 (nM)
Answer with a number only, understood to be in nM.

GIVEN SMILES: CC1(C)CCN(c2ccc(C(F)(F)F)cc2NC(=O)c2ccc(-c3ccncc3)o2)CC1
IC50 / nM: 15

GIVEN SMILES: CC1(CN)CCN(c2ccc(C(F)(F)F)cc2NC(=O)c2ccc(C3CCOCC3)o2)CC1
IC50 / nM: 2.6

GIVEN SMILES: CC1(CO)CCN(c2ccc(C(F)(F)F)cc2NC(=O)c2ccc(C3CCOCC3)o2)CC1
IC50 / nM: 2

GIVEN SMILES: COc1ccc(N2CCC(C)(CN(C)C)CC2)c(NC(=O)c2ccc(C3CCOCC3)o2)c1
IC50 / nM: 150

GIVEN SMILES: CC1(O)CCN(c2ccc(C3CC3)cc2NC(=O)c2ccccn2)CC1
IC50 / nM: 19

So what does the record say about IC50 for CN(C)C(=O)C1(C)CCN(c2ccc(C(F)(F)F)cc2NC(=O)c2ccc(-c3ccncc3)o2)CC1 ? 2.9

====

# TESTED SYSTEM: SRPK1 (Homo sapiens)
# EXPERIMENT: In vitro SRPK1 assay (Kinase-Glo)
# Type: biochemical
# label = 1 (yes) if IC50 < 30 nM else 0 (no)

Here's what some known entries look like.
COMPOUND: O=C(Nc1cc(C(F)(F)F)ccc1N1CCC2(CCCC2)CC1)c1ccc(C2CCOCC2)o1
CLASS: 1 (yes)
--
COMPOUND: O=C(Nc1cc(C(F)(F)F)ccc1N1CCCC(O)CC1)c1ccc(-c2ccncc2)o1 (racemic)
CLASS: 1 (yes)
--
COMPOUND: CN(C)CC1(C)CCN(c2ccc(C(F)(F)F)cc2NC(=O)c2ccc(C3CCOCC3)o2)CC1
CLASS: 1 (yes)
--
COMPOUND: CC1(O)CCN(c2ccc(C3CC3)cc2NC(=O)c2ccc(-c3ccncc3)o2)CC1
CLASS: 1 (yes)
--
COMPOUND: COC1(C)CCN(c2ccc(C(F)(F)F)cc2NC(=O)c2ccc(C3CCOCC3)o2)CC1
CLASS: 0 (no)

Quick check: IC50 of CC1(N)CCN(c2ccc(C(F)(F)F)cc2NC(=O)c2ccc(-c3ccncc3)o2)CC1 under 30 nM? 0 (no)

Take the compound CC1(O)CCN(c2ccc(C3CC3)cc2NC(=O)c2ccc(C3CCOCC3)o2)CC1 and say whether its IC50 is less than 30 nM. 1 (yes)

====

# TESTED SYSTEM: CYP2C9 (Homo sapiens, UniProt P11712)
# Construct: from tissue; host or cells: human liver microsomes
# Sequence (P11712 whole entry): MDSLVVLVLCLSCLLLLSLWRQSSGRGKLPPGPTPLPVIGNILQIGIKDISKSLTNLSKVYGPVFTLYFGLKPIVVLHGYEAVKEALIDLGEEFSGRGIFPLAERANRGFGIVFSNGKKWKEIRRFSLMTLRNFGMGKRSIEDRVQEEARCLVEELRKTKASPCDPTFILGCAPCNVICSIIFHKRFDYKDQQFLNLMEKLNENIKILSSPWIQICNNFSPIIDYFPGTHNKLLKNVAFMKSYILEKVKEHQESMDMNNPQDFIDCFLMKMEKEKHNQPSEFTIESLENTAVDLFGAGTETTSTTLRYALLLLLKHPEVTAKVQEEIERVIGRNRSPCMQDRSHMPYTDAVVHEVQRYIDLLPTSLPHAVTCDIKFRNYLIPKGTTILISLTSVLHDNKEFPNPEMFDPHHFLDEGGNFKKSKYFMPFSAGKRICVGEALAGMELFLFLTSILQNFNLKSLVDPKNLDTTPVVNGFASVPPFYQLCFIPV
# EXPERIMENT: CYP inhibition assay, human liver microsomes, substrate diclofenac
# Format: in vitro ADME
# ASSAY SETUP: human liver microsomes, 10 min incubation, LC-MS/MS; read-out: CYP Inhibition Activity (IC50/nM) CYP2C9
Mark t only when IC50 stays strictly below 3000 nM. Values equal to the cut-off are f.

Examples from the recorded data:
COMPOUND: Cc1ccc(N2CCC(C)(CO)CC2)c(NC(=O)c2ccc(C3CCOCC3)o2)c1
TESTED SYSTEM: CYP2C9 (Homo sapiens, UniProt P11712)
CLASS: t

COMPOUND: CC1(C)CCN(c2ccc(C3CC3)cc2NC(=O)c2ccc(C3CCOCC3)o2)CC1
TESTED SYSTEM: CYP2C9 (Homo sapiens, UniProt P11712)
CLASS: f

COMPOUND: CC1(O)CCN(c2ccc(C3CC3)cc2NC(=O)c2ccc(C3CCOCC3)o2)C1 (racemic)
TESTED SYSTEM: CYP2C9 (Homo sapiens, UniProt P11712)
CLASS: f

COMPOUND: CC1(O)CCN(c2ccc(C(F)(F)F)cc2NC(=O)c2ccc(C3CCOCC3)o2)C1 (racemic)
TESTED SYSTEM: CYP2C9 (Homo sapiens, UniProt P11712)
CLASS: f

COMPOUND: C[C@]1(O)CCN(c2ccc(C(F)(F)F)cc2NC(=O)c2ccc(-c3ccncc3)o2)C1
TESTED SYSTEM: CYP2C9 (Homo sapiens, UniProt P11712)
CLASS: t

COMPOUND: CN(C)CC1(C)CCN(c2ccc(Cl)cc2NC(=O)c2ccc(C3CCOCC3)o2)CC1
TESTED SYSTEM: CYP2C9 (Homo sapiens, UniProt P11712)
CLASS: f

Lab note: next compound to report on.
Hello, is IC50 of the following compound strictly smaller than 3000 nM? CC1CCN(c2ccc(C(F)(F)F)cc2NC(=O)c2ccc(C3CCOCC3)o2)CC1 f

====

# TESTED SYSTEM: SRPK1 (Homo sapiens)
# EXPERIMENT: In vitro SRPK1 assay (Kinase-Glo)
# Format: biochemical
Listing of recorded IC50 by entry.

Example entries and their recorded answers appear below.
MOLECULE: CN(C)CC1(C)CCN(c2ccc(C3CC3)cc2NC(=O)c2ccc(C3CCOCC3)o2)CC1
IC50: 28 nM
--
MOLECULE: Cc1ccc(N2CCC(C)(O)CC2)c(NC(=O)c2ccc(C3CCOCC3)o2)c1
IC50: 17.4 nM
--
MOLECULE: CC1(C(=O)O)CCN(c2ccc(C(F)(F)F)cc2NC(=O)c2ccc(-c3ccncc3)o2)CC1
IC50: 5.6 nM
--
MOLECULE: O=C(Nc1cc(C(F)(F)F)ccc1N1CCC(CO)CC1)c1ccccn1
IC50: 41 nM
--
MOLECULE: O=C(Nc1cc(C(F)(F)F)ccc1N1CCC(O)C1)c1ccc(-c2ccncc2)o1 (racemic)
IC50: 101 nM
--
MOLECULE: CC1(O)CCN(c2ccc(Cl)cc2NC(=O)c2ccc(C3CCOCC3)o2)C1 (racemic)
IC50: 71 nM
--
MOLECULE: O=C(Nc1cc(C2CC2)ccc1N1CCC(O)(CC2CC2)CC1)c1ccc(C2CCOCC2)o1
IC50: 2.9 nM

Alright, here's another molecule for you.
For SRPK1 (Homo sapiens), provide IC50 of C[C@]1(O)CCN(c2ccc(C(F)(F)F)cc2NC(=O)c2ccc(-c3ccncc3)o2)C1 please. 169 nM

====

# TESTED SYSTEM: CYP3A4 (Homo sapiens, UniProt P08684)
# Construct: from tissue; host or cells: human liver microsomes
# Sequence (P08684 whole entry): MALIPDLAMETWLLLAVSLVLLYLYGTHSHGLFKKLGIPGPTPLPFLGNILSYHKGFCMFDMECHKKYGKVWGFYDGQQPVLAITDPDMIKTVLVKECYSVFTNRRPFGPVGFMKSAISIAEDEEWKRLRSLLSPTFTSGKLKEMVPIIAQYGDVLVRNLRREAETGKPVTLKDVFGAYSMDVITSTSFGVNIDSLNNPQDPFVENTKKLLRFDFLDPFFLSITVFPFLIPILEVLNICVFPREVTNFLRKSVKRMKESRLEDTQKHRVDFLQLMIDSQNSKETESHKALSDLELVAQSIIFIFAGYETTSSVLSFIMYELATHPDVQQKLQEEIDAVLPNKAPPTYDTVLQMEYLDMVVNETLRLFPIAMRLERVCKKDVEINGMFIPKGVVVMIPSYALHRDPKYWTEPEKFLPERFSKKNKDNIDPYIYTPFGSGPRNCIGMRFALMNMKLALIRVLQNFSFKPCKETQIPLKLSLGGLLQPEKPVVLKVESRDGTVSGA
# EXPERIMENT: CYP inhibition assay, human liver microsomes, substrate midazolam
# Format: in vitro ADME
# ASSAY SETUP: human liver microsomes, 10 min incubation, LC-MS/MS; read-out: CYP Inhibition Activity (IC50/nM) CYP3A4
QUANTITY KIND: IC50

Guide cases for IC50, answers given:
GIVEN SMILES: CC1(C(=O)N2CCCCC2)CCN(c2ccc(C(F)(F)F)cc2NC(=O)c2ccc(C3CCOCC3)o2)CC1
VALUE: 2800 nM
--
GIVEN SMILES: CC1(CO)CCN(c2ccc(Cl)cc2NC(=O)c2ccc(C3CCOCC3)o2)CC1
VALUE: 10900 nM
--
GIVEN SMILES: C[C@]1(O)CCN(c2ccc(C(F)(F)F)cc2NC(=O)c2ccc(-c3ccncc3)o2)C1
VALUE: 1330 nM
--
GIVEN SMILES: O=C(Nc1cc(Cl)ccc1N1CCC(O)CC1)c1ccc(C2CCOCC2)o1
VALUE: > 30000 nM
--
GIVEN SMILES: CNCC1(C)CCN(c2ccc(C(F)(F)F)cc2NC(=O)c2ccc(C3CCOCC3)o2)CC1
VALUE: 6200 nM
--
GIVEN SMILES: CC1(CN2CCCC2)CCN(c2ccc(C(F)(F)F)cc2NC(=O)c2ccc(C3CCOCC3)o2)CC1
VALUE: 7300 nM
--
GIVEN SMILES: CC1(O)CCN(c2ccc(C(F)(F)F)cc2NC(=O)c2ccc(C3CCOCC3)o2)CC1
VALUE: 16300 nM

Query (compound): O=C(Nc1cc(C(F)(F)F)ccc1N1CCC(O)CC1)c1ccc(C2CCOCC2)o1 ; field requested: IC50 > 30000 nM
